Measured inhibition at 100 µM by item
Target: complex I (Homo sapiens, UniProt P19404+P28331+P49821)
Sequence (P49821 21-464): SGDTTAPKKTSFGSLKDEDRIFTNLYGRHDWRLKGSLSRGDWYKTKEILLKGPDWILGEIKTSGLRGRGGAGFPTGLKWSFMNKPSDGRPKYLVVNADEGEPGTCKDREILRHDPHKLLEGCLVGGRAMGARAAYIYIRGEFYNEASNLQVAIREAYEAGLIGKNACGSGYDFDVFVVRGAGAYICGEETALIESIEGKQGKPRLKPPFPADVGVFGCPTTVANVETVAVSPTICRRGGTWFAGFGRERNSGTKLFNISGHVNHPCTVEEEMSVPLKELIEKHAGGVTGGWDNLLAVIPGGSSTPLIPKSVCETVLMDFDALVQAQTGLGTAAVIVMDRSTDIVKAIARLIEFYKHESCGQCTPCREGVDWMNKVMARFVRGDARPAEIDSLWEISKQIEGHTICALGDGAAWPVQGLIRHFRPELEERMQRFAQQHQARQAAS
Sequence (P19404 33-249): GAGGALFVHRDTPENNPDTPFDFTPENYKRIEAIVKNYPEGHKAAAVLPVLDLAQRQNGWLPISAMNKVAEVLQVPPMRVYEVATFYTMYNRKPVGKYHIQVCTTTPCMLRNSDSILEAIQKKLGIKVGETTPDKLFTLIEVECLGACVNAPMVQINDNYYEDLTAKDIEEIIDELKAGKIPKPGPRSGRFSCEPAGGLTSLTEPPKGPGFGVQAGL
Sequence (P28331 24-727): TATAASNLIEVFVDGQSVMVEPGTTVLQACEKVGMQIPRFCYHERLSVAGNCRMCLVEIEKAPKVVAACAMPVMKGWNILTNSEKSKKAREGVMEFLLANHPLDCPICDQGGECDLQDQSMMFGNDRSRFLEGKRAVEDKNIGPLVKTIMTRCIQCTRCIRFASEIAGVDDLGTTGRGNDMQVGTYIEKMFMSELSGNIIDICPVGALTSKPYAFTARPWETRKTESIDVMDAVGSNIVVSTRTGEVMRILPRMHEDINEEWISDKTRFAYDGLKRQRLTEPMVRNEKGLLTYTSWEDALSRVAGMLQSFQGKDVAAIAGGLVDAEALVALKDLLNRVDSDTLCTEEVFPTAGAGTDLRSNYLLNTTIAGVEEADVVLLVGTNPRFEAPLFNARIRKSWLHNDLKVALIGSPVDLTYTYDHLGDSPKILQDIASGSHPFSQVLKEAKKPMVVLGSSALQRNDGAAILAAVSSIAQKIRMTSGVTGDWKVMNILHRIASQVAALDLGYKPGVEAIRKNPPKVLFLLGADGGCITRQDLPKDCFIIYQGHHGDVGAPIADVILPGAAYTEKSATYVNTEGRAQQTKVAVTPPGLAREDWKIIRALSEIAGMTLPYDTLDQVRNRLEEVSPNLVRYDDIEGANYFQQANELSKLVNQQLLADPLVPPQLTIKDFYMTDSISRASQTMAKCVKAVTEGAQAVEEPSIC
Test: Complex I driven respiration in SH-SY5Y cells
Assay type: cell-based
Parameters: endogenous in cells; host or cells: SH-SY5Y
Details: 10^−4 M, means ± SD of 4-6 detections
Just the number please, in %, no unit attached.

| Molecule | inhibition at 100 µM (%) |
| --- | --- |
| CN(C)CCCN1c2ccccc2Sc2ccc(Cl)cc21 | 43.8 |
| CN(C)CCCN1c2ccccc2CCc2ccc(Cl)cc21 | 32.1 |
| CNCCC(Oc1ccc(C(F)(F)F)cc1)c1ccccc1 (centres unmarked) | 29.2 |

Task item: Which inhibition at 100 µM is reported for this molecule? `O=C(CCCN1CCC(O)(c2ccc(Cl)cc2)CC1)c1ccc(F)cc1`
Reply: 47.6

Task item: Please report the recorded inhibition at 100 µM for `CN1CCN(C2=Nc3cc(Cl)ccc3Nc3ccccc32)CC1` .
Reply: 39.9

----------
Target: complex I (Homo sapiens, UniProt P19404+P28331+P49821)
Assay: Complex I driven respiration in SH-SY5Y cells
Type: cell-based
Design: endogenous in cells; host or cells: SH-SY5Y
Settings: 5 × 1O^−5 M, means ± SD of 4-6 detections
Description: The effect of antipsychotic drugs on respiration in SH-SY5Y cells was studied.
Measured metric: % Inhibition - complex I (%)
Expressed in %, but write only the number.

| Compound | % Inhibition - complex I (%) |
| --- | --- |
| CN(C)CCCN1c2ccccc2Sc2ccc(Cl)cc21 [Chlorpromazine] | 20.9 |
| CNCCC(Oc1ccc(C(F)(F)F)cc1)c1ccccc1 (centres unmarked) [Fluoxetine] | 15.7 |

Task item: I am curious: what % Inhibition - complex I value has been reported for CN(C)CCCN1c2ccccc2CCc2ccc(Cl)cc21 [Anafranil] ?
Reply: 13.0

Task item: Return reported % Inhibition - complex I; argument: CN1CCN(C2=Nc3cc(Cl)ccc3Nc3ccccc32)CC1 [Clozapine]
Reply: 31.2

Task item: Please look up its % Inhibition - complex I: O=C(CCCN1CCC(O)(c2ccc(Cl)cc2)CC1)c1ccc(F)cc1 [Haloperidol]
Reply: 27.2

----------
Molecular target: complex II (Homo sapiens, UniProt O14521+P21912+P31040+Q99643)
Sequence (P31040 43-664): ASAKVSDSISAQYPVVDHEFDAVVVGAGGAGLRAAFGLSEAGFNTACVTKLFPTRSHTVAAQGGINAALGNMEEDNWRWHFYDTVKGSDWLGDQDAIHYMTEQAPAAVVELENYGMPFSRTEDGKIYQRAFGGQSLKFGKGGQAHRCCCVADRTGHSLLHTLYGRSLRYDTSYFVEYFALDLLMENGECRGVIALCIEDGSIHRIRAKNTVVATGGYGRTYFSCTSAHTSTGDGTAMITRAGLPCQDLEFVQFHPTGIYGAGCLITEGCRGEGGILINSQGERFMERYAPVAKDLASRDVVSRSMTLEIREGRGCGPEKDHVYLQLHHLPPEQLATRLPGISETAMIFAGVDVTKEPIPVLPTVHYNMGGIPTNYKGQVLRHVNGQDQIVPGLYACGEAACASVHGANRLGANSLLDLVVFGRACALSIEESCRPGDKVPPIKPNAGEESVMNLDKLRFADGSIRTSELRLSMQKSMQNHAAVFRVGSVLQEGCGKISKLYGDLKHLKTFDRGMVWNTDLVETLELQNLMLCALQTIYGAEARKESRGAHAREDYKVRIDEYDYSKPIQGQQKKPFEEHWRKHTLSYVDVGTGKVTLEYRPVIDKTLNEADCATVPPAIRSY
Sequence (P21912 29-280): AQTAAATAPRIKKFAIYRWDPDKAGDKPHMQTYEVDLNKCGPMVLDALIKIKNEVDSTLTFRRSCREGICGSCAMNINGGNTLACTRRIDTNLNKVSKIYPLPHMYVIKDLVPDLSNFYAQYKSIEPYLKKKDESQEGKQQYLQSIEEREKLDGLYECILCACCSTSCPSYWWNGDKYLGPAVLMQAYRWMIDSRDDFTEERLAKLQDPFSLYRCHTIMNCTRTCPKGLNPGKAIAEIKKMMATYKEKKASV
Sequence (Q99643 30-169): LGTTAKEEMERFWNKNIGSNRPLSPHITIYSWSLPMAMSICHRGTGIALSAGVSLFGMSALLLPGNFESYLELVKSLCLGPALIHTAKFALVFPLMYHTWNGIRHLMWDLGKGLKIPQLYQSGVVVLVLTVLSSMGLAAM
Sequence (O14521 57-159): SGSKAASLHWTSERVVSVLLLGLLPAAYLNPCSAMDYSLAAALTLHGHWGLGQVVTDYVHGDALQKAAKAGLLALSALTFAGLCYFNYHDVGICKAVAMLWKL
Assay: Complex II driven respiration in SH-SY5Y cells
Type: cell-based
Design: endogenous in cells; host or cells: SH-SY5Y
Settings: 5 × 10^−5 M, means ± SD of 4-6 detections
inhibition at 50 µM of 10% or higher: class 1. Under 10%: class 0.

# count of solved cases: 4
| Molecule | Test target | Cat |
| --- | --- | --- |
| CN(C)CCCN1c2ccccc2Sc2ccc(Cl)cc21 | complex II (Homo sapiens, UniProt O14521+P21912+P31040+Q99643) | class 0 |
| CNCCC(Oc1ccc(C(F)(F)F)cc1)c1ccccc1 (centres unmarked) | complex II (Homo sapiens, UniProt O14521+P21912+P31040+Q99643) | class 1 |
| CN(C)CCCN1c2ccccc2CCc2ccc(Cl)cc21 | complex II (Homo sapiens, UniProt O14521+P21912+P31040+Q99643) | class 1 |
| O=C(CCCN1CCC(O)(c2ccc(Cl)cc2)CC1)c1ccc(F)cc1 | complex II (Homo sapiens, UniProt O14521+P21912+P31040+Q99643) | class 0 |

Task item: Does inhibition at 50 µM meet or surpass 10% for `CN1CCN(C2=Nc3cc(Cl)ccc3Nc3ccccc32)CC1` ?
Reply: class 1
